# Tested On: ovine COX-1 (Ovis aries, UniProt P05979)
# Construct: purchased Cayman Chemical Co. 760111
# Sequence (P05979 25-600): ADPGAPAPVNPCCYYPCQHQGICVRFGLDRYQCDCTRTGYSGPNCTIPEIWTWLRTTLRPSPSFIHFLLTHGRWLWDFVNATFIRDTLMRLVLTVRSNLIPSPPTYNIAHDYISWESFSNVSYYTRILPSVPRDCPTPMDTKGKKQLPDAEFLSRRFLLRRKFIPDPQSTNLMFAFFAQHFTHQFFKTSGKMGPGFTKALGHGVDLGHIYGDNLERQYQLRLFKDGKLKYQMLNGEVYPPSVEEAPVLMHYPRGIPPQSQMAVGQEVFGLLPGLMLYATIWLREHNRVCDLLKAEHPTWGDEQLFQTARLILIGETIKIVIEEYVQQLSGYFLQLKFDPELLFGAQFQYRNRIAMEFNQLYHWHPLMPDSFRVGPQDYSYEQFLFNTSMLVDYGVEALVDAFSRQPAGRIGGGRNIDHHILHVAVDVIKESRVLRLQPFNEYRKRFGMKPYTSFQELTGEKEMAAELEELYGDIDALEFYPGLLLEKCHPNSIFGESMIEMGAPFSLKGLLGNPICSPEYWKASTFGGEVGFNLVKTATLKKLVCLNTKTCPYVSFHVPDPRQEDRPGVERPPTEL
# Measurement Notes: Colorimetric COX (ovine) inhibitor screening assay, COX-1
# Assay type: biochemical
# Stated Conditions: ovine COX-1, colorimetric, TMPD 590 nm; read-out: COX Inhibition (IC50) COX-1
pIC50: −log10 of the molar value.
Property: pIC50

> print(dat)
                                   molecule  numeric.value
1  O=C(O)C=Cc1ccc(O)cc1 [P-hydroxycinnamic acid, p-hydroxycinnamic acid]           3.64

----------
# Tested On: ovine COX-2 (Ovis aries)
# Construct: purchased Cayman Chemical Co. 760111
# Sequence (P79208 17-603): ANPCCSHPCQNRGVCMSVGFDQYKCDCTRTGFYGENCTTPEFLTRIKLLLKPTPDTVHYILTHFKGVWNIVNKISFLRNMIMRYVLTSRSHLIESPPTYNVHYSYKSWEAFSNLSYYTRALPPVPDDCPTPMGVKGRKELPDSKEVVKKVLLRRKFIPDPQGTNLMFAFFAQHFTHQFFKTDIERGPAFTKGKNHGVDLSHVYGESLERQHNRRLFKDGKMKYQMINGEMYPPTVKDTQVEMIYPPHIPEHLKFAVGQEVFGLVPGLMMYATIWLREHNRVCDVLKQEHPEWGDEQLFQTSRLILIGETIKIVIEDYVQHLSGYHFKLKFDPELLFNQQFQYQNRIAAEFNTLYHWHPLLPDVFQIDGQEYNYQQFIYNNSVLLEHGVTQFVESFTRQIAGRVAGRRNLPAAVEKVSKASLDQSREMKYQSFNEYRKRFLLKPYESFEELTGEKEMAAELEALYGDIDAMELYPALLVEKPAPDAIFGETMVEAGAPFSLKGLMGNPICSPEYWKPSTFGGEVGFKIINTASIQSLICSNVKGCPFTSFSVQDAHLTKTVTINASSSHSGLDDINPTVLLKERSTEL
# Measurement Notes: Colorimetric COX (ovine) inhibitor screening assay, COX-2
# Format: biochemical
Property: IC50

> print(dat)
                                   molecule                 tested.on   result
1  Oc1cc(O)c2c(c1)OC(c1ccc(O)c(O)c1)C(O)C2 (stereo not shown) [Catechin, catechin]  ovine COX-2 (Ovis aries)  50.4 µM

----------
# Tested On: ovine COX-1 (Ovis aries)
# Construct: purchased Cayman Chemical Co. 760111
# Measurement Notes: Colorimetric COX (ovine) inhibitor screening assay, COX-1
# Assay type: biochemical
Property: IC50 (µM)

> print(dat)
                                   compound                 tested.on  unit.abbrev  numeric.value
1  Oc1cc(O)c2c(c1)OC(c1ccc(O)c(O)c1)C(O)C2 (stereo not shown)  ovine COX-1 (Ovis aries)           µM           9.02
